# MEASUREMENT TARGET: amylin receptor (rat basal forebrain membranes containing the nucleus accumbens and surrounding regions) (rat)
# ASSAY DETAILS: competition with 125I-Bolton-Hunter rat amylin on rat basal forebrain membranes, filtration
Positions of bridges follow the written chain, without caps; N, C: chain ends. No end group written: not given here.
PARAMETER: IC50 (nM)

CNTATCATQRLANFLVHSSNNFGPILPPTNVGSNTY (2,7-disulfide; made on methylbenzhydrylamine resin (C-terminal amide not printed in so many words)) [des-1Lys25,28,29Pro-h-Amylin]: 0.014

P: KCNTATCATQRLANFLVHSSNNFGPILPSTNVGSNTY (peptide, from a related filing) [25,28Pro-h-Amylin]
Q: KDNTATKATQRLANFLVHSSNNFGAILSSTNVGSNTY (peptide, from a related filing, lactam 2-7; ends not checked) [2,7Cyclo-[2Asp,7Lys]-h-Amylin]
I'm curious, which of these has a smaller IC50 number: P or Q ? Which one? Tell me its label.
P
(P: 0.026 nM, Q: 0.31 nM)
